Target: Steroid 17-alpha-hydroxylase/17,20 lyase (Homo sapiens, UniProt P05093)
Sequence (P05093 whole entry): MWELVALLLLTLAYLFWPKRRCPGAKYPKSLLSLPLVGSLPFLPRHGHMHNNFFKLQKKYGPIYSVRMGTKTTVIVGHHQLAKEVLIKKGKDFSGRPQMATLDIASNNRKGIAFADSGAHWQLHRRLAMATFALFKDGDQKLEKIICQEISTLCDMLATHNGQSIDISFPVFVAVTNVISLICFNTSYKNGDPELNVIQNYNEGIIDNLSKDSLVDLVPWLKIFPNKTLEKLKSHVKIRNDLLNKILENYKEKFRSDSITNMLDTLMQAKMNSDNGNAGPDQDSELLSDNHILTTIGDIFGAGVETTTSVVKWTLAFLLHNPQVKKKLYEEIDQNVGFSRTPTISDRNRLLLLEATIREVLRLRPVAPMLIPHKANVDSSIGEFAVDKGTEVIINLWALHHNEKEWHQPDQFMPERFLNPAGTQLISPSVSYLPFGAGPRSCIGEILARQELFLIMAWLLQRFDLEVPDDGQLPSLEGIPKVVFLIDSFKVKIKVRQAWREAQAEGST
Experiment: Inhibition of human testicular 17-alpha-hydroxylase
Measured pIC50 accompanies every entry in the list below.
Please treat pIC50 as minus the base-10 logarithm of the molar concentration.

molecule="CC(N=N)[C@H]1CC[C@H]2[C@@H]3CC=C4C[C@@H](O)CC[C@]4(C)[C@H]3CC[C@]12C (some centres not stated)" tested_target="Steroid 17-alpha-hydroxylase/17,20 lyase (Homo sapiens, UniProt P05093)" value_observed=5.00

Kindly consider the entry below.
pIC50 reported for this molecule `C[C@@H](CN=O)[C@H]1CC[C@H]2[C@@H]3CCC4=CC(=O)CC[C@]4(C)[C@H]3CC[C@]12C` : 5.22
